Data credit: the Deep4Chem optical property database

protocol: solvent given as SMILES
measurementContext: in ClCCl
recordedMetric: fluorescence lifetime (ns)
# number only, unit ns dropped from output

Exercise: # query: fluorescence lifetime of entry COc1c2ccccc2c(OC)c2c1c1ccc(C)cc1n2C
Solution: 22

Exercise: Recorded fluorescence lifetime of Cc1cccc(C)c1/C=C/c1nc(N2CCOCC2)c2c([n+]1[O-])CCCC2 , please.
Solution: 9.1

Exercise: Form field: reported fluorescence lifetime of CCCCCCCCN1c2ccccc2Sc2cc(/C=C/c3ccc(N(c4ccc(/C=C/c5ccc6c(c5)Sc5ccccc5N6CCCCCCCC)cc4)c4ccc(/C=C/c5ccc(/C=C/c6ccc(N(c7ccc(/C=C/c8ccc9c(c8)Sc8ccccc8N9CCCCCCCC)cc7)c7ccc(/C=C/c8ccc9c(c8)Sc8ccccc8N9CCCCCCCC)cc7)cc6)c6nsnc56)cc4)cc3)ccc21
Solution: 2
